biological target: human DHOD (Homo sapiens); experiment: Measurement of DHOD inhibitory activity (DCIP reduction, end point assay); format: biochemical; conditions: read-out: IC50 (nM) human DHOD (HsDHOD)
Sequence (Q02127 whole entry): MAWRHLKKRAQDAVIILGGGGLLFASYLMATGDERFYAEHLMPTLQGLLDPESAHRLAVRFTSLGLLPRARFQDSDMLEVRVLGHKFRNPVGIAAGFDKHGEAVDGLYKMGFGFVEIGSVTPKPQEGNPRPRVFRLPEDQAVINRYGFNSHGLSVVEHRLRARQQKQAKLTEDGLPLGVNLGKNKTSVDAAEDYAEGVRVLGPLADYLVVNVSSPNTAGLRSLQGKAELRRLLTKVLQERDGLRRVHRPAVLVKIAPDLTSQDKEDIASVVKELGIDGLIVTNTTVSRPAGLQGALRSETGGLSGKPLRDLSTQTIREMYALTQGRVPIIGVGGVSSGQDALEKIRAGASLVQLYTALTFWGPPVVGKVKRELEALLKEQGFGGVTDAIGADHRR
Catalogue of IC50 readings, one per entry.

compound: CCCCC/C(C)=C/Cc1c(O)c(Cl)c(C)c(C=O)c1O
IC50: 71 nM

compound: COC(CC(=O)C(C)(C)C)/C(C)=C/CC/C(C)=C/Cc1c(O)c(Cl)c(C)c(C=O)c1O (stereo not shown)
IC50: 60 nM

compound: C/C(C=O)=C\CC/C(C)=C/Cc1c(O)c(Cl)c(C)c(C=O)c1O
IC50: 31 nM

compound: C/C(=C\COC(=O)C(C)(C)C)CC/C(C)=C/Cc1c(O)c(Cl)c(C)c(C=O)c1O
IC50: 67 nM

* * *

endpoint: melting point

compound: C/C(=C\Cc1c(O)c(Cl)c(C)c(C=O)c1O)CC/C=C(\C)COC1CCCO1 (stereo not drawn)
endpoint: melting point
assay_result: 35 to 36 °C
--
compound: CCC(=O)OCCCCCCC/C=C/c1c(O)c(Cl)c(C)c(C=O)c1O
endpoint: melting point
assay_result: 72 to 73 °C
--
compound: CC(C)=CCC/C(C)=C/Cc1c(O)cc(C)c(C=O)c1O
endpoint: melting point
assay_result: 120 to 121 °C
--
compound: COC(=O)c1cc(Cl)c(O)c(C/C=C(\C)CCC=C(C)C)c1O
endpoint: melting point
assay_result: 71 °C
--
compound: Cc1c(Cl)c(O)c(CCCCCCCOC(=O)C(C)(C)C)c(O)c1C=O
endpoint: melting point
assay_result: 63 to 64 °C
--
compound: C/C(=C\Cc1c(O)c(Cl)c(C)c(C=O)c1O)CC/C=C(\C)CCC1OC1(C)C (stereo not drawn)
endpoint: melting point
assay_result: 36 to 37 °C
